System: SK-OV-3 ovarian
PROTOCOL_DETAILS: NCI tumour cell line growth inhibition, 48 h
TGI values, listed per item
Unit µM implied. Number only.

COMPOUND	TGI / µM
COc1ccc2c(c1)C(C)Cc1c(Cl)ncnc1N2C (stereo unspecified)	17.3
NS(=O)(=O)c1nn2c(Br)c(-c3ccccc3)nc2s1	28.4

Next up:
Quick one: TGI of Ic1ccc(Nc2nc3nonc3nc2Nc2ccc(I)cc2)cc1 ? 0.741

---

Tested on: OVCAR-8 ovarian
PROTOCOL_DETAILS: NCI tumour cell line growth inhibition, 48 h
VALUE_TYPE: TGI

MOLECULE	TGI
CC1=C(C#N)C(C#N)(C#N)C(NN(C)C)C1 (stereo not given)	> 100 µM
O=C1N=c2ccccc2=C1c1c(O)[nH]c2ccccc12	66.7 µM
COC(=O)Cc1cc(O)c(C/C=C(\C)CC/C=C(\C)C(O)C(=O)C=C(C)C)cc1O (stereo not given)	55.1 µM

Quick one: TGI of Cc1ccc2c(n1)C(=O)c1[nH]c3ccccc3c1C2=O ? > 100 µM

Quick one: TGI of COc1cc(C2c3cc4c(cc3OC(N3CCCC3)C2C)OCO4)cc(OC)c1O (stereo not given) ? > 100 µM

Quick one: TGI of COc1ccc(OC)c(NC(=O)C(=O)NNC(=O)c2sc(NNC(C)=O)nc2C)c1 ? > 100 µM

Quick one: TGI of Cn1cc(C2=C(c3ccc4ccccc4c3)C(=O)NC2=O)c2ccccc21 ? > 25 µM

Quick one: TGI of CCCCc1c(OC)cc(O)c2c1C(=O)c1[nH]c(C(=O)O)c(O)c(=O)c1C2=O ? 28.8 µM

Quick one: TGI of COc1ccc2c(c1)CCC1C2CC[C@@]2(C)C1CC1=CC(COC(C)=O)C3C(=O)c4ccccc4C(=O)C3C12 (stereo not given in full) ? > 100 µM

Quick one: TGI of Cc1c2cccnc2c(C)c2c1c1cc(CO)ccc1n2C ? 18.1 µM
